Data provenance: the supplement of paper PMC10307832

# Test system: NCI-H647
# TEST: relative viability (nuclei count vs DMSO), 5 days (fraction); higher = more cells survive
# CONDITION_SUMMARY: first compound 0.8 µM
Give measured relative viability for each item. Keep answers brief.
Could you respond with only the numeric value?

Query block: GET /values?readout=relative viability&item= Cc1cnc(-c2cnc(NCCNc3ccc(C#N)cn3)nc2-c2ccc(Cl)cc2Cl)[nH]1 + CC(C)C[C@H](NC(=O)[C@H](Cc1ccccc1)NC(=O)c1cnccn1)B(O)O [Bortezomib] (partner 0.002 µM)
Result block: 1.05

Query block: Quick one: relative viability for Cc1cnc(-c2cnc(NCCNc3ccc(C#N)cn3)nc2-c2ccc(Cl)cc2Cl)[nH]1 + Cc1nc(NC(=O)N2CCC[C@H]2C(N)=O)sc1-c1ccnc(C(C)(C)C(F)(F)F)c1 [Alpelisib] (partner 2 µM) ?
Result block: 1.05

Query block: Using the record for O=c1[nH]c2ccccc2n1C1CCN(CCCC(c2ccc(F)cc2)c2ccc(F)cc2)CC1 [Pimozide] + CC(C)C[C@H](NC(=O)[C@H](Cc1ccccc1)NC(=O)c1cnccn1)B(O)O [Bortezomib] (partner 0.002 µM) , report its relative viability.
Result block: 0.851

Query block: If you can, please state the reported relative viability value of O=c1[nH]c2ccccc2n1C1CCN(CCCC(c2ccc(F)cc2)c2ccc(F)cc2)CC1 [Pimozide] + O=C(c1cc(Cc2n[nH]c(=O)c3ccccc23)ccc1F)N1CCN(C(=O)C2CC2)CC1 [Olaparib] (partner 8 µM) .
Result block: 0.391

###

# Test system: SK-MES-1
# TEST: relative viability (nuclei count vs DMSO), 5 days (fraction); higher = more cells survive
# CONDITION_SUMMARY: first compound 0.1581 µM
Labelling: relative viability reported below 0.9 becomes True; at or above becomes False.

Query block: Does this compound meet the criterion relative viability < 0.9? COc1cc2nccc(Oc3ccc(NC(=O)Nc4cc(C)on4)c(Cl)c3)c2cc1OC [Tivozanib] + O=C(c1cc(Cc2n[nH]c(=O)c3ccccc23)ccc1F)N1CCN(C(=O)C2CC2)CC1 [Olaparib] (partner 8 µM)
Result block: True

Query block: is_below(relative viability, 0.9) for Nc1ccn([C@@H]2O[C@H](CO)[C@@H](O)[C@@H]2O)c(=O)n1 [Cytarabine] + CC(=O)Nc1cccc(-n2c(=O)n(C3CC3)c(=O)c3c(Nc4ccc(I)cc4F)n(C)c(=O)c(C)c32)c1 [Trametinib] (partner 0.02 µM) ?
Result block: True

Query block: Is the reported relative viability for COc1cc2nccc(Oc3ccc(NC(=O)Nc4cc(C)on4)c(Cl)c3)c2cc1OC [Tivozanib] + O=C(CCCCCCC(=O)Nc1ccccc1)NO [Vorinostat] (partner 1 µM) strictly below 0.9?
Result block: False

Query block: # TODO verify relative viability < 0.9 strictly for this compound: Nc1ccn([C@@H]2O[C@H](CO)[C@@H](O)[C@@H]2O)c(=O)n1 [Cytarabine] + C[C@@H](Oc1cc(-c2cnn(C3CCNCC3)c2)cnc1N)c1c(Cl)ccc(F)c1Cl [Crizotinib] (partner 1 µM)
Result block: True

###

# Test system: NCI-H2023
# TEST: relative viability (nuclei count vs DMSO), 5 days (fraction); higher = more cells survive
# CONDITION_SUMMARY: first compound 50 µM
Assign relative viability to each entry below.

Query block: Missing value: relative viability, NCI-H2023, entry O=C(O)CCCCC(CCSCc1ccccc1)SCc1ccccc1 (stereo not given) [CPI-613] + O=C(CCCCCCC(=O)Nc1ccccc1)NO [Vorinostat] (partner 1 µM) . Fill in?
Result block: 0.572

Query block: Form entry - test system: NCI-H2023; read-out: relative viability; molecule: O=C(O)CCCCC(CCSCc1ccccc1)SCc1ccccc1 (stereo not given) [CPI-613] + Nc1ncn([C@H]2C[C@H](O)[C@@H](CO)O2)c(=O)n1 [Decitabine] (partner 2 µM)
Result block: 0.244

Query block: Lab note: need relative viability with NCI-H2023 for entry O=C(O)CCCCC(CCSCc1ccccc1)SCc1ccccc1 (stereo not given) [CPI-613] + CS(=O)(=O)N1CCN(Cc2cc3nc(-c4cccc5[nH]ncc45)nc(N4CCOCC4)c3s2)CC1 [Pictilisib] (partner 1 µM) , please look it up.
Result block: 0.231

Query block: Give recorded relative viability with NCI-H2023 for the following molecule: O=C(O)CCCCC(CCSCc1ccccc1)SCc1ccccc1 (stereo not given) [CPI-613] + O=C(c1cc(Cc2n[nH]c(=O)c3ccccc23)ccc1F)N1CCN(C(=O)C2CC2)CC1 [Olaparib] (partner 8 µM)
Result block: 0.41

Query block: For the record O=C(O)CCCCC(CCSCc1ccccc1)SCc1ccccc1 (stereo not given) [CPI-613] + CC1(C)CCC(c2ccc(Cl)cc2)=C(CN2CCN(c3ccc(C(=O)NS(=O)(=O)c4ccc(N[C@H](CCN5CCOCC5)CSc5ccccc5)c(S(=O)(=O)C(F)(F)F)c4)cc3)CC2)C1 [Navitoclax] (partner 0.5 µM) , what value of relative viability is listed for NCI-H2023?
Result block: 0.951
